Listing of entries alongside the reported %Inh.
system: NEK1; settings: concentration: 1 μM, replicates: in singlicate; n = 1;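 further: KINOMEscan kinase panel screen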
Enter the number, and then the unit.

Worked cases, answers included:
O=c1cc(N2CCOCC2)nc2n(Cc3cccc4ccccc34)ccn12 [GSK2333389]
0%
O=C(NCCNc1ccnc(Nc2ccc(F)cc2)n1)c1cc2ccccc2s1 [GSK1379874]
0%
CN1c2ccc(NCc3ccc(F)cc3)cc2-c2c(cnn2C)S1(=O)=O
0%
COc1ccc(Nc2nccc(N3CCC(NC(=O)Nc4cccc(C(C)=O)c4)C3)n2)cc1 (stereo not drawn) [GSK1379731]
0%
COc1ccc(COc2cc(-n3cnc4ccccc43)sc2C(N)=O)cc1 [GSK1024304]
0%
O=c1cc(N2CCOCC2)nc2n(Cc3cccc(C(F)(F)F)c3)ccn12 [GSK2297543]
0%

Look up %Inh for this molecule: "Cn1ccc2ncnc(Oc3ccc(NC(=O)Nc4ccncc4)c(Cl)c3)c21"
0%

Look up %Inh for this molecule: "O=C1Cc2cc(Nc3nc(NCc4cccc(S(=O)(=O)C(F)(F)F)c4)ncc3C(F)(F)F)ccc2N1"
10%

Look up %Inh for this molecule: Cc1c(Cn2c(C)nn3c(=O)cc(N4CCOC(C)C4)nc23)cccc1C(F)(F)F (stereo not drawn) [GSK2344444]
0%
